The values you see were collected from patent US20120122919A1.

Assay: phase I pharmacokinetic study of tenatoprazole, oral single dose and daily dose for 7 days
Format: in vivo, Caucasian individuals
Conditions: human, plasma, after administration for seven days, depending on the dose (10-80 mg), read-out: mean elimination half-lives
endpoint: half-life at 7 days

Query: # get_value(readout='half-life at 7 days', item= COc1ccc2[nH]c([S+]([O-])Cc3ncc(C)c(OC)c3C)nc2n1 (stereo not shown) [tenatoprazole] )
Reply: 5 to 9.2 h
